- assay-text: gradient 5% acetonitrile 3 min, to 50% in 2 min, to 85% in 15 min, held 3 min, 100 µL/min
- study-conditions: column: Zorbax Extend-C18 2.1 x 50 mm; eluents: water / acetonitrile, 0.1% formic acid
The label True is reserved for RP-LC retention time strictly under 700 s; False covers values equal to or above it.

INPUT: State whether 700 s exceeds RP-LC retention time recorded for O=c1cc(CN(Cc2ccccc2)Cc2ccccc2)nc2ccc(Cl)cn12 .
OUTPUT: False

INPUT: State whether 700 s exceeds RP-LC retention time recorded for COc1ccc(N2CCN(c3cc(SCC(=O)Nc4ccc(C)c(Cl)c4)ncn3)CC2)cc1 .
OUTPUT: False

INPUT: State whether 700 s exceeds RP-LC retention time recorded for CCCn1c(C2CCN(C(=O)Nc3ccc(F)cc3)CC2)cc(=O)n2nccc12 .
OUTPUT: True

INPUT: State whether 700 s exceeds RP-LC retention time recorded for O=C(Cc1c(F)cccc1Cl)N1CCN(Cc2ccsc2)CC1 .
OUTPUT: True

INPUT: State whether 700 s exceeds RP-LC retention time recorded for COc1cc(Cl)c(NC(=O)C2CCCN(c3nc4ccccc4nc3OC)C2)c(OC)c1 (centres undefined) .
OUTPUT: False

INPUT: State whether 700 s exceeds RP-LC retention time recorded for Cn1ncc2c3ccccc3n(CC(=O)NCCN3CCCCC3)c2c1=O .
OUTPUT: True

INPUT: State whether 700 s exceeds RP-LC retention time recorded for CC1=NS(=O)(=O)N(C)C=C1C(=O)OCc1nc(-c2ccccc2)no1 .
OUTPUT: False

INPUT: State whether 700 s exceeds RP-LC retention time recorded for CCN1C(=O)CCc2cc(NS(=O)(=O)c3ccc(C4CCCCC4)cc3)ccc21 .
OUTPUT: False

INPUT: State whether 700 s exceeds RP-LC retention time recorded for Clc1ccc(-c2nc(N3CCN(c4ccccn4)CC3)c3ccccc3n2)cc1 .
OUTPUT: True

INPUT: State whether 700 s exceeds RP-LC retention time recorded for CN(Cc1ccccc1)S(=O)(=O)c1cc2c3c(c1)CCC(=O)N3CCC2 .
OUTPUT: False

INPUT: State whether 700 s exceeds RP-LC retention time recorded for O=C(CCNc1cnc2cnccn12)NCc1ccccc1C(F)(F)F .
OUTPUT: True

INPUT: State whether 700 s exceeds RP-LC retention time recorded for O=C(NCc1ccco1)c1nnn(-c2ccc(F)cc2)c1-c1ccncc1 .
OUTPUT: False

INPUT: State whether 700 s exceeds RP-LC retention time recorded for O=C(Cc1noc2ccccc12)N1CCN(c2cc(-c3ccccc3)ncn2)CC1 .
OUTPUT: False

INPUT: State whether 700 s exceeds RP-LC retention time recorded for Cc1ccc(-c2cc3c4nnc(CCC(=O)N5CCN(c6ccccn6)CC5)n4ccn3n2)cc1C .
OUTPUT: True

INPUT: State whether 700 s exceeds RP-LC retention time recorded for N#Cc1ccccc1CN1CCCC(N2CCCC2)C1=O (centres undefined) .
OUTPUT: True

INPUT: State whether 700 s exceeds RP-LC retention time recorded for COc1ccc(N2CC(c3noc(-c4cc(F)cc(F)c4)n3)CC2=O)cc1 (centres undefined) .
OUTPUT: False

INPUT: State whether 700 s exceeds RP-LC retention time recorded for COc1cc(Nc2nc(-c3nnn(-c4ccc(Cl)cc4)c3C)ns2)cc(OC)c1 .
OUTPUT: False

INPUT: State whether 700 s exceeds RP-LC retention time recorded for CCc1nc2cc(N3CCC(C(=O)NC(C)c4ccccc4)CC3)cnc2nc1CC (centres undefined) .
OUTPUT: False

INPUT: State whether 700 s exceeds RP-LC retention time recorded for CCOC(=O)c1cc(S(=O)(=O)N2CCCC2C(=O)NC2CCCCC2)cn1C (centres undefined) .
OUTPUT: False

INPUT: State whether 700 s exceeds RP-LC retention time recorded for Cc1csc(-c2cc(S(=O)(=O)NCCc3ccc(S(N)(=O)=O)cc3)c(C)n2C)n1 .
OUTPUT: False

INPUT: State whether 700 s exceeds RP-LC retention time recorded for c1ccc(N2CCN(Cc3cccn3-c3nnc(N4CCOCC4)s3)CC2)nc1 .
OUTPUT: False

INPUT: State whether 700 s exceeds RP-LC retention time recorded for CCOc1cc(=O)n2c(c1C(=O)NC1CCCC1)CCCCC2 .
OUTPUT: True

INPUT: State whether 700 s exceeds RP-LC retention time recorded for CCn1cc2c3c(cccc31)CN(C(=O)CCc1ccccc1)CC2 .
OUTPUT: False

INPUT: State whether 700 s exceeds RP-LC retention time recorded for COCCn1c(CCCC(=O)NCc2ccccn2)nc2cccnc21 .
OUTPUT: True

INPUT: State whether 700 s exceeds RP-LC retention time recorded for Cc1ccc(Cn2cccc2C(=O)C(=O)NCc2ccc(C)o2)cc1 .
OUTPUT: False

INPUT: State whether 700 s exceeds RP-LC retention time recorded for COc1cccc(NC(=O)N2CCC3(CC2)N=C(c2cccc(Cl)c2)C(=O)N3)c1 .
OUTPUT: False

INPUT: State whether 700 s exceeds RP-LC retention time recorded for CC(C)NC(=O)c1ccc(OCC2CCCN(C(=O)C(C)C)C2)cc1 (centres undefined) .
OUTPUT: False

INPUT: State whether 700 s exceeds RP-LC retention time recorded for O=C1COc2ccccc2N1Cc1nc(-c2ccccc2Cl)no1 .
OUTPUT: False

INPUT: State whether 700 s exceeds RP-LC retention time recorded for O=C(CSc1nnc(-c2ccccc2)o1)Nc1nsc(-c2ccccc2)n1 .
OUTPUT: False

INPUT: State whether 700 s exceeds RP-LC retention time recorded for COc1ccc2c(c1)C1(CCN(C(=O)c3ccc(C)cc3)C1)C(=O)N2 (centres undefined) .
OUTPUT: False

INPUT: State whether 700 s exceeds RP-LC retention time recorded for Cc1ccc(N2CC(c3nc(-c4ccc5c(c4)nc(C)c(=O)n5C)no3)CC2=O)cc1 (centres undefined) .
OUTPUT: False

INPUT: State whether 700 s exceeds RP-LC retention time recorded for CCCn1c(CCNC(=O)c2cc(F)ccc2F)nc2cccnc21 .
OUTPUT: True

INPUT: State whether 700 s exceeds RP-LC retention time recorded for Cc1ccc(CNC(=O)CN2CCN(C(=O)Nc3ccc(Cl)cc3)CC2=O)o1 .
OUTPUT: False

INPUT: State whether 700 s exceeds RP-LC retention time recorded for CCc1nnc(-c2cc(C)n(CC(=O)Nc3ccc(Cl)cc3C)c2C)o1 .
OUTPUT: False

INPUT: State whether 700 s exceeds RP-LC retention time recorded for COc1ccc(-n2c(=O)n(C)c(=O)c3cc(C(=O)NCc4ccccn4)cnc32)cc1 .
OUTPUT: True

INPUT: State whether 700 s exceeds RP-LC retention time recorded for Cc1ccccc1-c1nnc(SCC(=O)N2CCC(C)CC2)o1 .
OUTPUT: False
